FYI, the data here is from patent US20250257060A1.

# protocol-summary: Pharmacokinetic test in mice (IV and PO)
# Format: in vivo, BALB/c mice
# study-conditions: mice, IV 1 mg/kg
# Method: In this example, the pharmacokinetic behavior of the compounds after intravenous injection (IV) and intragastric (PO) administration in BALB/c mice was tested. On the day of administration, mice were weighed for actual body weight and the administration volume was calculated. […] Plasma concentrations were determined by a LC-MS/MS method. […] The relevant pharmacokinetic parameters were calculated by a linear logarithmic trapezoid method.
assay-metric: CLz (mL/min/kg)
Numbers only, in mL/min/kg.

Some molecules with recorded CLz:
[
  {
    "compound-structure": "Cn1cc([C@@H]([C@H](O)c2ccccc2)N2Cc3ccc(-c4nnc(C(F)F)o4)cc3S2(=O)=O)cn1",
    "value-units": "mL/min/kg",
    "endpoint-value": 6.7
  },
  {
    "compound-structure": "CN(C)C(=O)N[C@@H]1CCCC[C@H]1N1Cc2ccc(-c3nnc(C(F)F)o3)cc2S1(=O)=O",
    "value-units": "mL/min/kg",
    "endpoint-value": 33.3
  }
]

From here, focus on the item given below.
Give a short answer stating reported CLz for `O=S1(=O)c2cc(-c3nnc(C(F)F)o3)ccc2CN1[C@H](c1ccccn1)[C@H](O)c1ccc(F)cn1` .
18.3

###

Exercise: state measured Cmax for each of the compounds provided.
# protocol-summary: Pharmacokinetic test in mice (IV and PO)
# Assay type: in vivo, BALB/c mice
# study-conditions: BALB/c, mouse, plasma, po, 10 mg/kg; read-out: C0/Cmax
# Experimental: In this example, the pharmacokinetic behavior of the compounds after intravenous injection (IV) and intragastric (PO) administration in BALB/c mice was tested. On the day of administration, mice were weighed for actual body weight and the administration volume was calculated. […] Plasma concentrations were determined by a LC-MS/MS method. […] The relevant pharmacokinetic parameters were calculated by a linear logarithmic trapezoid method.
Numbers only, in µM.

Some compounds with recorded Cmax:
[
  {
    "compound": "O=C(N[C@H]1[C@H](N2Cc3ccc(-c4nnc(C(F)F)o4)cc3S2(=O)=O)CCCC1(F)F)C(F)F",
    "value-units": "µM",
    "Cmax": 12.6
  },
  {
    "compound": "O=C(N[C@@H]1CCCC[C@H]1N1Cc2ccc(-c3nnc(C(F)F)o3)cc2S1(=O)=O)C(F)F",
    "value-units": "µM",
    "Cmax": 13.9
  }
]

Give Cmax for all compounds that follow.
1. CC(F)(F)C(=O)N[C@@H]1CCCC[C@H]1N1Cc2ccc(-c3nnc(C(F)F)o3)cc2S1(=O)=O
2. O=S1(=O)c2cc(-c3nnc(C(F)F)o3)ccc2CN1C(c1ccccn1)[C@H](O)c1ccccn1 (stereo partly shown)

1: 8.97; 2: 12

###

# protocol-summary: Phase I metabolic stability in rat liver microsomes (RLMs)
# Assay type: in vitro ADME, Sprague-Dawley rats
# study-conditions: RLM, with NADPH, 60 min
Exercise: state measured Remaining rate (T = 60 min) for each of the molecules provided.
Numbers only, in %.

[
  {
    "molecule": "O=C(N[C@H]1[C@H](N2Cc3ccc(-c4nnc(C(F)F)o4)cc3S2(=O)=O)CCCC1(F)F)C(F)F [Compound 61]",
    "Remaining rate (T = 60 min) (%)": 72.95
  },
  {
    "molecule": "O=S1(=O)c2cc(-c3nnc(C(F)F)o3)ccc2CN1C(c1ccccn1)[C@H](O)c1ccccn1 (stereo partly shown) [Compound 83]",
    "Remaining rate (T = 60 min) (%)": 36.99
  },
  {
    "molecule": "CC(F)(F)C(=O)N[C@@H]1CCCC[C@H]1N1Cc2ccc(-c3nnc(C(F)F)o3)cc2S1(=O)=O [Compound 1]",
    "Remaining rate (T = 60 min) (%)": 68.9
  }
]

From here, focus on the item given below.
Give a short answer stating reported Remaining rate (T = 60 min) for O=C(N[C@@H]1CCCC[C@H]1N1Cc2ccc(-c3nnc(C(F)F)o3)cc2S1(=O)=O)C(F)F [Compound 2] .
76.4
